- System: MAP4K5
- Condition Notes: concentration: 1 μM,replicates: in singlicate; n = 1;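 note: KINOMEscan kinase panel screen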
Value Kind: %Inh (%)
Your answer is read as %, so omit the unit and give the number.

Guide cases for %Inh, answers given:
> print(dat)
                                   compound  test.value
1  Cc1ccc(CC(=O)N2CCc3cc(-c4cn(C)c5ncnc(N)c45)ccc32)cc1          77
2  CCNCC(Cc1ccccc1)NC(=O)c1cc(Br)c(-c2ccnc3[nH]ccc23)s1.Cl.Cl (stereo not drawn)           0
3  Cl.c1ccc(Oc2ccc(Nc3ccnc4cc(-c5ccc(CN6CCNCC6)o5)ccc34)cc2)nc1          13
4  Cn1ccc2ncnc(Oc3ccc(NC(=O)Nc4cccc(C(F)(F)F)c4)c(Cl)c3)c21           1
5  N#Cc1cccc(C(=O)NC2CCN(c3ccnc(Nc4ccc(F)cc4)n3)C2)c1 (stereo not drawn)           1

Short answer for `CCN1CCN(CCCC(=O)Nc2n[nH]c3nc(-c4ccc(O)cc4)c(Br)cc23)CC1` : %Inh was 5

Record `CC(=O)Nc1ccc(-c2cc3ncnc(SCC(=O)O)c3s2)cc1` . Reported %Inh: 0

Note to self: %Inh recorded for `C[C@@H]1CCN(C(=O)N2CCCC2)C[C@@H]1N(C)c1ncnc2[nH]ccc12` was 0

Measured %Inh, `Cc1ccc2c(-c3ccnc(Nc4ccc(C(F)(F)F)cc4)n3)cnn2n1` : 0

====

- System: CDK8
- Condition Notes: concentration: 1 μM,replicates: in singlicate; n = 1
# %Inh per record follows
The reply should be a number in %, with the unit left off.

// known answers, use as guide
> print(dat)
                           smiles.structure  value.kind  test.value
1  CS(=O)(=O)c1cccc(CNc2nc(Nc3ccc4c(c3)[C@@H]3C[C@@H]4CNC3=O)ncc2C(F)(F)F)c1        %Inh           0
2  Cc1ccc(C(=O)Nc2ccc(Oc3ccc4nc(NC(=O)C5CC5)cn4c3)c(F)c2)c(=O)n1-c1ccccc1        %Inh          87
3  CN1CCN(CCNc2nc3cc(Oc4ccc(NC(=O)Nc5cc(C(F)(F)F)ccc5F)cc4)ccc3[nH]2)CC1.Cl.Cl        %Inh          55
4  O=C(NCC1CC1)c1ccc(-c2cc(C(=O)NC3CC3)ccc2F)cc1        %Inh          62

The compound `c1ccc(Oc2ccc(Nc3ccnc4ccc(-c5ccccn5)cc34)cc2)cc1` , when measured on CDK8, yielded %Inh of 0

# value of %Inh, CDK8, item `COc1cc2c(Nc3ccc(NC(=O)c4ccccc4)cc3)ncnc2cc1OCCCN1CCOCC1` = 0

Case `O=C(Nc1cccc(Oc2ccc3nccn3n2)c1)Nc1cccc(C(F)(F)F)c1` , CDK8, %Inh recorded as 90.9

Tested on CDK8: `Cn1ccc2ncnc(Oc3ccc(NC(=O)Nc4cccc(C(F)(F)F)c4)c(Cl)c3)c21` . Observed %Inh: 95.9

====

The entries below come with measured %Inh values attached.
- Tested on: MAP3K15
- Condition Notes: concentration: 1 μM,replicates: in singlicate; n = 1
Only the number, expressed in %, is required.

Worked examples follow.
> print(dat)
                           smiles.structure  test.value
1           Nc1nccc(-c2ccc3c(N)n[nH]c3c2)n1           0
2  CN(c1ccccc1CNc1nc(Nc2ccc3c(c2)CC(=O)N3)ncc1C(F)(F)F)S(C)(=O)=O           0

With those in mind, consider the next compound.
The compound listed as `Cn1ccc2ncnc(Oc3ccc(NC(=O)Nc4cccc(C(F)(F)F)c4)c(F)c3)c21` has a reported %Inh of 0

====

- Test system: BRSK2
- Condition Notes: concentration: 1 μM,replicates: in singlicate; n = 1
Catalogue of molecules with associated %Inh
Reply with just the number (in %).

Study these solved cases before continuing.
> print(dat)
                                   molecule  result.units  test.value
1  COc1cc2c(Nc3ccc(NC(=O)c4ccccc4)cc3)ncnc2cc1OCCCN1CCOCC1             %           0
2  COc1cccc(C2=C(Nc3cccc(Cl)c3)C(=O)NC2=O)c1             %           2
3  COc1ccc(Nc2nccc(N3CCC(NC(=O)c4cccc(C#N)c4)C3)n2)cc1 (centres unmarked)             %           0
4  COC(=O)c1cccc(NC(=O)NC2CCN(c3ccnc(NCc4ccc(F)cc4)n3)CC2)c1             %           0
5  O=C(NCC1CC1)c1ccc(-c2cc(C(=O)NC3CC3)ccc2F)cc1             %           0
6  COc1cc(Nc2nccc(N3CCC(NC(=O)c4cccc(C#N)c4)C3)n2)cc(OC)c1OC (centres unmarked)             %         100
7  COc1cccc(OC)c1C(=O)Nc1cccc(-c2nn3ccccc3c2-c2ccnc(Nc3cccc(F)c3)n2)c1             %          16

Let us examine a further case.
What the record says about `Cc1ccc(Nc2ccnc(Nc3ccc4c(c3)CS(=O)(=O)C4)n2)cc1O.Cl` : %Inh is 3

====

- Test system: TESK1
- Condition Notes: concentration: 1 μM,replicates: in singlicate; n = 1
Value Kind: %Inh (%)
Report only the number, with the unit % understood.

Use these answered entries as a reference point.
> print(dat)
                                   compound  value.kind  test.value
1  COC(=O)c1cccc(NC(=O)NC2CCN(c3ccnc(NCc4ccc(F)cc4)n3)CC2)c1 [GSK1379860]        %Inh          16
2  COc1cc2nccc(Nc3ccc(Oc4ccccc4)cc3)c2cc1OC.Cl [GI261656]        %Inh           5
3  O=C(Nc1cccc(C(F)(F)F)c1)c1cccc(Oc2ccc3nccn3n2)c1        %Inh           7
4  Cn1ccc2ncnc(Oc3ccc(NC(=O)Nc4cnn(C(C)(C)C)c4)c(Cl)c3)c21        %Inh           0

Then there is this compound:
Hey, TESK1 data for Cc1ccc2c(-c3ccnc(Nc4ccc(C(F)(F)F)cc4)n3)cnn2n1 [GW819776] : %Inh came out at 0

====

- Test system: PKN1
- Condition Notes: concentration: 1 μM,replicates: in singlicate; n = 1
Quick reference for %Inh among some molecules
Report the figure in % without appending any unit label.

> print(dat)
                                   molecule  value.kind  test.value
1  Cc1cccc2c(-c3ccncc3)c(-c3ccc(F)cc3)nn12.Cl [GW461487]        %Inh           0
2  O=C(Nc1cccc(Oc2ccc3nccn3n2)c1)Nc1cccc(C(F)(F)F)c1        %Inh           0
3  COc1ccc(Nc2nccc(N3CCC(NC(=O)c4cccc(C#N)c4)C3)n2)cc1 (stereo not drawn) [GSK1379730]        %Inh          37
4  O=C(Nc1cccc(C(F)(F)F)c1)c1cccc(Oc2ccc3nccn3n2)c1        %Inh          81
5  Cn1ccc2ncnc(Oc3ccc(NC(=O)Nc4cncc(C(F)(F)F)c4)c(Cl)c3)c21        %Inh           0
6  CCn1c(-c2nonc2N)nc2cncc(CNC3CCNCC3)c21.Cl [SB-747651]        %Inh          39

Reported %Inh for `O=C(NOCC1CC1)c1cc(Br)c(F)c(F)c1Nc1ccc(I)cc1Cl` was 9

Query Cc1cccc(-c2nc(Nc3ccncc3)c3sccc3n2)n1 [GW869641] yields %Inh of 1

For reference, reported %Inh for CC(=O)c1c(-c2ccncc2)[nH]c(-c2ccncc2)c1C [GW493036] stands at 16

Record COC(=O)Nc1nc2cc(Oc3ccc(NC(=O)Nc4cc(C(F)(F)F)ccc4Cl)cc3)ccc2[nH]1.Cl [GW697465] . Reported %Inh: 0

Record `OCCn1cc(-c2cnc3nnn(Cc4ccc5ncccc5c4)c3n2)cn1` , field %Inh: 0

So, `NC(=O)c1ccc(-c2cc3ncnc(SCC(=O)O)c3s2)cc1` ? Its %Inh was 0

====

- Test system: CSNK2A1
- Condition Notes: concentration: 1 μM,replicates: in singlicate; n = 1
Each record here notes measured %Inh.
Please reply with the bare figure in % and do not write the unit itself.

> print(dat)
                                   compound  test.value
1  OCCn1cc(-c2cnc3nnn(Cc4ccc5ncccc5c4)c3n2)cn1           0

The compound CCCC(=O)Nc1n[nH]c2ncccc12 [SB-601436] on CSNK2A1: %Inh was 1

Kindly note: CSNK2A1, `Cn1ccc2ncnc(Oc3ccc(NC(=O)Nc4ccnc(C(F)(F)F)c4)c(Cl)c3)c21` , %Inh value reported: 0

CCNCC(Cc1ccccc1)NC(=O)c1cc(Br)c(-c2ccnc3[nH]ccc23)s1.Cl.Cl (centres unmarked) [GSK1383280] tested on CSNK2A1 gave %Inh: 87

Entry Cl.c1ccc(Oc2ccc(Nc3ccnc4cc(-c5ccc(CN6CCNCC6)o5)ccc34)cc2)nc1 [GW567142] ; assay system CSNK2A1; %Inh recorded at 0

Given the compound O=c1[nH]cc(-c2ccc(O)cc2)c2sc(-c3ccncc3)cc12 [GSK1033723] and test system CSNK2A1, the measured %Inh is 9

Tested system CSNK2A1; %Inh recorded for CCN1CCN(CCCC(=O)Nc2n[nH]c3nc(-c4ccc(O)cc4)c(Br)cc23)CC1 [SB-731579] was 0

CSNK2A1 %Inh of `C[C@@H]1CCN(C(=O)N2CCCC2)C[C@@H]1N(C)c1ncnc2[nH]ccc12` is 35

Form field, %Inh with CSNK2A1, item `Cc1ccc(C(=O)Nc2ccc(Oc3ccc4nc(NC(=O)C5CC5)cn4c3)c(F)c2)c(=O)n1-c1ccccc1` : 0

The compound `O=C(Nc1ccc(Oc2ccc3nc(NC(=O)C4CC4)cn3n2)c(F)c1)c1cccn(-c2ccccc2)c1=O` , when measured on CSNK2A1, yielded %Inh of 0

Tested on CSNK2A1, the item `CN(c1ccccc1CNc1nc(Nc2ccc3c(c2)CC(=O)N3)ncc1C(F)(F)F)S(C)(=O)=O` showed %Inh equal to 70

The reported numbers originate from paper PMC5540273.
